- System Tested: hAQP1 (Homo sapiens)
- Construct: made in house; host or cells: Spodoptera frugiperda (Sf9) insect cells, baculovirus vector pFB-LIC-Bse
- Assay Overview: Surface plasmon resonance (SPR) fragment binding to immobilized hAQP1
- Particulars: KD (inset table), inset table of the Figure 5 sensorgram
Measure Name: Kd (µM)

• NCCc1coc2ccccc12 = 133

* * *

- System Tested: hAQP1 (Homo sapiens)
- Construct: made in house; host or cells: Spodoptera frugiperda (Sf9) insect cells, baculovirus vector pFB-LIC-Bse
- Assay Overview: Thermal aggregation shift assay (differential static light scattering, DSLS)
- Type: binding
- Set-up: key: positive (+) Thermal Shift; ΔTagg (+/−)
- Particulars: 1 mM of each fragment
Measure Name: ΔTagg (+/−)

• OC1CCCNC1 (stereo not shown) [AC36708] = +
• NCc1cccc(N2CCCCC2)n1 [CC38113] = +
• Nc1cccc(CN2CCCC2)c1 [CC55714] = +
• CNCc1scc2c1OCCO2 [CC47846] = +
• Nc1ccc2c(c1)OCCO2 [SB00353] = −
• OCc1cccc(-c2ccco2)c1 [CC46109] = +
• NCCNc1cccc2ccccc12 [AC42399] = −
• NCCc1coc2ccccc12 [CC40813] = −
• Cc1cc2cc(N)ccc2[nH]1 [AC34875] = −
• Nc1snnc1-c1ccc(C(F)(F)F)cc1 [MO00656] = −
• NCc1ccc(-c2ccc(C(F)(F)F)cn2)cc1 [CC53013] = −
• c1ccc2c(c1)CCNCC2 [MO08607] = +
• NCCNCc1ccccc1 [SB01744] = +

* * *

- System Tested: hAQP1 (Homo sapiens, UniProt P29972)
- Construct: made in house; host or cells: Spodoptera frugiperda (Sf9) insect cells, baculovirus vector pFB-LIC-Bse
- Sequence (P29972 1-269): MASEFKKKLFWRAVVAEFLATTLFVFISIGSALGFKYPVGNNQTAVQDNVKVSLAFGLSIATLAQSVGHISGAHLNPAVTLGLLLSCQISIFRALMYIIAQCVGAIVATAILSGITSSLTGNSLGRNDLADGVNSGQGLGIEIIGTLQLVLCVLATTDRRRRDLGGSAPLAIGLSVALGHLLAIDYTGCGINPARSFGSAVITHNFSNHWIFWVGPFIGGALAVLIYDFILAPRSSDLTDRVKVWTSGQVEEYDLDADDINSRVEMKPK
- Assay Overview: Surface plasmon resonance (SPR) fragment binding to immobilized hAQP1
- Particulars: SPR (KD), 1:1 steady-state binding model, 6.25 to 800 µM in 2-fold dilutions, 25 °C
pKd: −log10 of the molar value.
Measure Name: pKd

• NCCc1coc2ccccc12 = 3.88

* * *

- System Tested: hAQP1 (Homo sapiens, UniProt P29972)
- Construct: made in house; host or cells: Spodoptera frugiperda (Sf9) insect cells, baculovirus vector pFB-LIC-Bse
- Assay Overview: Surface plasmon resonance (SPR) fragment binding to immobilized hAQP1
- Particulars: 1:1 steady-state binding model, 6.25 to 800 µM in 2-fold dilutions, 25 °C; read-out: SPR (KD)
Kindly apply the following: label 1 if Kd is less than 500 µM, label 0 in every other case.

- NCCNc1cccc2ccccc12: label 0
- O=Nc1c(O)ccc2ccccc12: label 1
- NCc1cccc(N2CCCCC2)n1: label 1
- Cc1cc2cc(N)ccc2[nH]1: label 1
- Nc1snnc1-c1ccc(C(F)(F)F)cc1: label 0
- c1ccc2c(c1)CCNCC2: label 0
- OCc1cccc(-c2ccco2)c1: label 0
- Nc1ccc2c(c1)OCCO2: label 0
- NCc1ccc(-c2ccc(C(F)(F)F)cn2)cc1: label 0

src = paper PMC4848905
